test: soluble on expression in E. coli; label from the status in PepcDB or PDB records
measurement.name: soluble on expression in E. coli

Below, 5 sequences whose answers are already recorded.
| construct.sequence | soluble on expression in E. coli |
| --- | --- |
| MYEAGTVEWRLTMVYLEQFRFPDAEVEFDFFLRQKRTCYDTYYPFQILSKHRFEQIDFEPVTILYGGNGTGKSTVLNIIAQKLHLLREAPFNQSSFYEDYLELCSFESAAHLPKDSRIITSDDVFDYMLNIRNLNEGIDRKREMLFEEYLDTKFAKFRMKSLDDYEQLKRVNNARRKTQSQFIRSELMDNVREYSNGESAFLYFTEKVTENALFLLDEPENSLSPAKQQELVKFIEDSARFFGCQFVIATHSPFVLAIRGAKIYDLDEEPVDVKRWTELENVRAYYDFFKKHASEF | not soluble |
| MAHHHHHHMFKFVSSIGDAAYKAASKTGLAAGSEQPPYPCALPLQVIEDCEDTETTERVLNDTYAAVRDLLSDDLPLLHSTISDVQAHKPFKLVDFTDREGDIRLFTRPHVGSYNFARVTLTLDNVSPAKVLTFMHAQSLEARNRYSSNLCQYDVIARNPELPAQYIGNDNDHLEELCRMGIRDWHVEYNRYSAPPPVTARDFVYLVEKRYAPEQRCYYIYGTSVDYRDTAGIAIEKDNCVRGAVVFGWRFQHVGRKTYCTYVSCMSPNGWAPTFIVGWMKTAIAKELQNARRVLYQDVPSCHAAGASSEYAKGALAAYDAPITSCRQNKPTRDHSSSKSSAQKLGNAMEHEERRLLEDEKPIVFE | soluble |
| MSLIYGFIRDHSNEFAVEKMCQVLNVSRSGYYSWLNRKPGKRELTNKKLKLKIAEIYWQTRGRCGSPRIHKQLKKEGYHYNIKRIERLMRIMGLKAIQKRKFKRTTNSDNNLPLKNNLLKRNFSVTQPDKVWVSDITYIPTKEGWLYLSVVIDLYSRKVVGWSMDNHMTKRLVIDALEMAVLNRNPSRGLIFHSDRGSQYASHDFQKTLWKYGIISSMSRKGDCWDNAVAESFFATLKTELIFHNKYQSRAQAKRDIFEYIEIFYNRIRLHSSLDYKSPEDYEKERKTSKEGHHHHHH | not soluble |
| MAIKNEIKNCLIMSVNPSYPLPLLCQYIPRYHPQMPTCPLFESKSIITPVFYFNCKRMDRSIDRRLCGHCHQSIGSEALVAMNRLWHPDHFTCSSCKRPIKQTFQAADNHAYCVQCFAQKYNPKCAGCMETLVDTCLLALDRHWHPRCFTCSSCNRPLPNGEFYLVDDKPYDLDCHWAKRLEKREHMERGER | not soluble |
| MSLASYLDFEKNIQQIDEDIINAQIKGDTEAVSILKKNLEKEISKTYKNLSDFQRLQLARHPDRPYALDYIELILNDAHEIHGDRAFRDDPAIVCFMGYLGEKKIIVIGEQKGRGTKDKIARNFGMPHPEGYRKALRVAGLAEKFQIPILFLIDTPGAYPGIGAEERGQSEAIARNLYELSDLKIPTIAIVIGEGGSGGALAIGVADKLAMMKNSVFSVISPEGCAAILWNDPAKSEAATKAMKVTADDLKSQGLIDDVIDEPTNGAHRNKEAAAVAIADYVKKSLNELENIDVRELSANRMQKILKLGAYQEAEGHHHHHH | soluble |

Query MGSDKIHHHHHHMIDWLYSYPPLYPGILLKRYKRFFADVQLASGEVVTAHCPNTGPMTGVSTLGSVVQLSKSANPKRKLAYTLELIQVHDNEPTWVGVNTALPNQIVKLALAKYLFPELGSYNHIKSEVVYGVDKKSRVDFFLTGSDTERPIYLEVKNTTWAKGTLALFPDTETTRGQKHLRELMTLLPQTRSVMLYFINRGDCTEFAPGDSTDPIYGKLLREAIALGLEVLPCRFDVTPEGIRYLGLAKLVI yields soluble on expression in E. coli of not soluble

Query MEHVAFGSEDIENTLAKMDDGQLDGLAFGAIQLDGDGNILQYNAAEGDITSRDPKQVIGKNFFKDVAPCTDSPEFYGKFKEGVASGNLNTMFEYTFDYQMTPTKVKVHMKKALSGDSYWVFVKRV yields soluble on expression in E. coli of soluble

Query HIPEMGGQHYLGDSLDKDWRVTRDNQQFAFEYQDNEGQAQSKVLTLKVGDNLEEVATYINAQQSVVDASVTQDHQLQFFTSTLNAPEGITWKGNFADEMDIGSGELVTVDDLDMSTVGGAQLAIGVVDAAIKYVDSHRSEIGGFQNRVSGTIDNLNTINRSVSESKGRIRDTDFARESTVMVRSQVLQDATTALLAQAKQRPSSALGLLS yields soluble on expression in E. coli of not soluble

Query MSFYSAHQLALALEGLQRALDEIGIYSDILEDALLIACNVPVAEKTSILNDFQRADTINYGGLAAAIRANLAPDVCERRITEFQKKYAHGTDDQRLELLSDESVWRLEAYEAFADAEPLSTLEKIRLGVIGGPIDSIDPNWPLRKIAPERFLNDRWSRAVHDPRRIRRKIIGHRLPYRTKAEPDVPYGIPKRARLAARENSGPVRAPPLLGGAHPGQFRARGPAGVGVVSRHTRQFGAARGVLRGPTGNRVVPLFPVQIRARPPAPSQTIIRVQETERVKLEPTDNSYEEQKPPLLEN yields soluble on expression in E. coli of not soluble

Query MFISCIILINYSYIFGKNIRYLYEFKVIWKSNNSLILFFIEFDRNFMTIKFKLFKCRRLNILIELINIENYFRNGNILCFIFNIPSIPRNLLINVFLTSSNKVNISIQGLKLEHHHHHH yields soluble on expression in E. coli of not soluble

Query MGSDKIHHHHHHMDYRKLPHGNEKVSTIGIGSGSLKETTSKEIEDIVTYSMEEGVNLIDTVMYDTTAAEPINNALKGHRDDMLMQIHLGVWYPKGTYSRTRVPRNVKKGFEQELKKYSTNYADIGLISYVDRVKDFEKIMSNGIFDYAKKLKQDGTIRYLGISSHSEEICKLFIETGEIDVIMFSINAAYDFKPSWGKLNLKNERMELYQECEKQGVALTVMKAYGGGQLLNEKTSPFNHAMTVPQCIQYALDRPGVVSCISGVSSKADLDEALKYYSTSEKDRDYSFIASLPHRDIMGTCIYCNHCQPCPSGIDIGIVNKYLDLAKAGDELAKDHYLKLSKNANDCTNCGVCEKNCPFHVDIRGRMLKAKNYFDKTNSVKK yields soluble on expression in E. coli of not soluble
